Protocol: Phase I plasma pharmacokinetics
Assay type: in vivo, human
Experimental Parameters: human, plasma, iv, 2.75 mg/kg, Cohort 4: 2.75 mg/kg; N = 6; 90-min IV infusion; Cycle 1 Day 10; plasma LC-MS; read-out: Time to peak plasma concentration, Mean (SD)
Ends that are not written are not given here.
Measure: Tmax

Specify reported Tmax for the sequence shown: KEFLHPSKVDLPR [SOR-C13]
36.6 min

###

Protocol: Phase I plasma pharmacokinetics
Assay type: in vivo, human
Experimental Parameters: human, plasma, iv, 2.75 mg/kg, Cohort 4: 2.75 mg/kg; N = 6; 90-min IV infusion; Cycle 1 Day 8; plasma LC-MS; read-out: AUCtau, Median
Ends that are not written are not given here.
Measure: AUC(0-t) (ng·h/mL)
Provide only the numeric value, understood in ng·h/mL.

Find the measured AUC(0-t) of KEFLHPSKVDLPR [SOR-C13] and report it.
247
